# System: Pseudomonas aeruginosa
# test: Antibacterial activity Pseudomonas aeruginosa ATCC 27853 at 1 mg/ml after 24 hrs by well plate method
# Format: functional
# assaySetup: ATCC 27853, 24 h, read-out: DIZ
experimentalEndpoint: zone of inhibition at 1000 µg/mL
Record the result as a number with its unit.

Answered examples (5):
>  <compound>
COc1cc(C2CC(c3cc4ccccc4o3)=NN2C(=O)Nc2ccc(O)cc2)ccc1O (stereo not drawn)

>  <result>
3 mm

$$$$
>  <compound>
COc1cc(C2CC(c3cc4ccccc4o3)=NN2C(=O)Nc2ccc(F)cc2)ccc1O (stereo not drawn)

>  <result>
19 mm

$$$$
>  <compound>
CN[C@@H]1[C@H](O[C@H]2[C@H](O[C@H]3[C@H](O)[C@@H](O)[C@H](N=C(N)N)[C@@H](O)[C@@H]3N=C(N)N)O[C@@H](C)[C@]2(O)C=O)O[C@@H](CO)[C@H](O)[C@H]1O [STREPTOMYCIN]

>  <result>
16 mm

$$$$
>  <compound>
COc1cc(C2CC(c3cc4ccccc4o3)=NN2C(=O)Nc2ccccc2O)ccc1O (stereo not drawn)

>  <result>
4 mm

$$$$
>  <compound>
COc1ccc(NC(=O)N2N=C(c3cc4ccccc4o3)CC2c2ccc(O)c(OC)c2)cc1 (stereo not drawn)

>  <result>
7 mm

$$$$

Record COc1cc(C2CC(c3cc4ccccc4o3)=NN2C(=O)Nc2ccc([N+](=O)[O-])cc2)ccc1O (stereo not drawn) , field zone of inhibition at 1000 µg/mL: 9 mm

Record COc1cc(NC(=O)N2N=C(c3cc4ccccc4o3)CC2c2ccc(O)c(OC)c2)ccc1O (stereo not drawn) , field zone of inhibition at 1000 µg/mL: 2 mm

Record COc1cc(C2CC(c3cc4ccccc4o3)=NN2)ccc1O (stereo not drawn) , field zone of inhibition at 1000 µg/mL: 0 mm

====

# Test system: Liver microsomes
# test: Antioxidant activity in Wistar rat liver microsomes assessed as inhibition of microsomal lipid peroxidation after 15 mins by MDA-TBA assay
# Assay type: functional, Microsome
Quick list: IC50 per entry.
Give a bare numeral; the unit uM/ml is implied.

Answered examples (3):
>  <compound>
COc1cc(C2CC(c3cc4ccccc4o3)=NN2)ccc1O (stereo not drawn)

>  <measurementUnit>
uM/ml

>  <recordedNumber>
112

$$$$
>  <compound>
COc1cc(C2CC(c3cc4ccccc4o3)=NN2C(=O)Nc2cccc(O)c2)ccc1O (stereo not drawn)

>  <measurementUnit>
uM/ml

>  <recordedNumber>
24

$$$$
>  <compound>
COc1cc(C2CC(c3cc4ccccc4o3)=NN2C(=O)Nc2ccc(F)cc2)ccc1O (stereo not drawn)

>  <measurementUnit>
uM/ml

>  <recordedNumber>
125

$$$$

Record COc1cc(C2CC(c3cc4ccccc4o3)=NN2C(=O)Nc2ccc(C)cc2)ccc1O (stereo not drawn) , field IC50: 44

Record COc1cc(C2CC(c3cc4ccccc4o3)=NN2C(=O)Nc2ccc(O)cc2)ccc1O (stereo not drawn) , field IC50: 15

Record COc1cc(C2CC(c3cc4ccccc4o3)=NN2C(=O)Nc2ccccc2)ccc1O (stereo not drawn) , field IC50: 116

Record COc1ccc(NC(=O)N2N=C(c3cc4ccccc4o3)CC2c2ccc(O)c(OC)c2)cc1 (stereo not drawn) , field IC50: 29

Record COc1cc(C2CC(c3cc4ccccc4o3)=NN2C(=O)Nc2ccc([N+](=O)[O-])cc2)ccc1O (stereo not drawn) , field IC50: 113
